The measurements presented in this section are drawn from paper PMC9722545.

target: CDK2-cyclin A Ala144Gly (A144G) (Homo sapiens, UniProt P24941, A144G); experiment: ITC binding of OTS964 to CDK2 Ala144Gly-cyclin A
PROPERTY: pKd
Bear in mind: pKd is minus log10 of a mol/L concentration; give just that figure.

Query: pKd; subject: Cc1cc(O)c(-c2ccc(C(C)CN(C)C)cc2)c2c1[nH]c(=O)c1sccc12 (stereo not shown) 5.52

###

biological target: CDK2 Phe80Met (F80M) (Homo sapiens, UniProt P24941, F80M); assay: ITC binding of OTS964 to CDK2 Phe80Met
PROPERTY: Kd

So what does the record say about Kd for Cc1cc(O)c(-c2ccc(C(C)CN(C)C)cc2)c2c1[nH]c(=O)c1sccc12 (stereo not shown) [OTS964] ? 32.4 µM

###

target: CDK2 Ala144Gly (A144G) (Homo sapiens, UniProt P24941, A144G); experiment: ITC binding of OTS964 to CDK2 Ala144Gly
PROPERTY: pKd
Value format note: pKd is -log10 of concentration (mol/L); just state the number.

For the compound Cc1cc(O)c(-c2ccc(C(C)CN(C)C)cc2)c2c1[nH]c(=O)c1sccc12 (stereo not shown) [OTS964] , what pKd is on record? 4.80

###

molecular target: CDK11 Gly223Ala (G223A) (Homo sapiens, UniProt P21127, G579A); experiment: ITC binding of OTS964 to CDK11 Gly223Ala
Sequence (P21127 428-736 G579A): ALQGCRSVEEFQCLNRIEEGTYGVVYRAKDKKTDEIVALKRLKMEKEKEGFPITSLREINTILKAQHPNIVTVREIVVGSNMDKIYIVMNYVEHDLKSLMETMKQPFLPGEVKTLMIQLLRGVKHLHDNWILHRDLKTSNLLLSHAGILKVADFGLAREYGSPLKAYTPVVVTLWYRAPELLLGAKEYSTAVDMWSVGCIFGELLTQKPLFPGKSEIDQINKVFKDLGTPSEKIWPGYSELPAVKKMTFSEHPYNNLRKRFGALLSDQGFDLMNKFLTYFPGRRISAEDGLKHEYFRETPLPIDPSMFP
PROPERTY: pKd
// field semantics: pKd = negative decimal log of concentration (mol/L)

Would you mind telling me what pKd value was observed for Cc1cc(O)c(-c2ccc(C(C)CN(C)C)cc2)c2c1[nH]c(=O)c1sccc12 (stereo not shown) [OTS964] ? 7.50

###

biological target: CDK2 Gly11Glu (G11E) (Homo sapiens, UniProt P24941, G11E); assay: ITC binding of OTS964 to CDK2 Gly11Glu
PROPERTY: Kd (µM)
API: value field is a number in µM; no unit string.

May I ask what Kd has been recorded for Cc1cc(O)c(-c2ccc(C(C)CN(C)C)cc2)c2c1[nH]c(=O)c1sccc12 (stereo not shown) ? 6.82

###

biological target: CDK11 Glu89Gly (E89G) (Homo sapiens, UniProt P21127, E445G); test: ITC binding of OTS964 to CDK11 Glu89Gly
Sequence (P21127 428-736 E445G): as the sequence (P21127 428-736 G579A) above, with E18G, A152G counted along it
PROPERTY: pKd
Would you please state pKd, meaning minus log10 of the concentration in mol/L, as a bare number?

Entry Cc1cc(O)c(-c2ccc(C(C)CN(C)C)cc2)c2c1[nH]c(=O)c1sccc12 (stereo not shown) : reported pKd = ? 7.29
